protocol notes: Solubility (maximum solubility)
Format: physicochemical
measured quantity: Max. sol. dosage (mg/kg)
Numbers only, in mg/kg.

Answer for every listed entry: what is its Max. sol. dosage? The entries follow.
1. NSc1ncnc2c1ncn2[C@@H]1O[C@H](CO)[C@@H](O)[C@H]1O
2. Nc1nc(S(N)(=O)=O)c2ncn([C@@H]3O[C@H](CO)[C@@H](O)[C@H]3O)c2n1
3. C[C@H]1O[C@@H](n2cnc3c([S+](N)[O-])nc(N)nc32)[C@H](O)[C@@H]1O (some centres unmarked)
4. NS(=O)(=O)c1ncnc2c1ncn2[C@@H]1O[C@H](CO)[C@@H](O)[C@H]1O
5. NSc1ncnc2c1ncn2[C@H]1C[C@H](O)[C@@H](CO)O1

480
62
104
480
800

====

Tested on: L1210 cells
protocol notes: Life span of BDF1 mice inoculated ip with 10^6 L1210 leukemia cells
Type: in vivo, mouse
measurement setup: single QD day 1 ip (Table 14-b)
measured quantity: T/C
One number for each entry.

compound	T/C
Nc1nc([S+](N)[O-])c2ncn([C@@H]3O[C@H](CO)[C@@H](O)[C@@H]3O)c2n1 (stereo partly shown) [Compound 50]	140
C[C@H]1O[C@@H](n2cnc3c(S(N)(=O)=O)nc(N)nc32)[C@H](O)[C@@H]1O [Compound 43]	130
NSc1nc(N)nc2c1ncn2[C@H]1C[C@H](O)[C@@H](CO)O1 [Compound 45]	172

Moving on to another compound below.
Any idea what T/C was measured for NS(=O)(=O)c1ncnc2c1ccn2[C@H]1C[C@H](O)[C@@H](CO)O1 [Compound 55] ?
125

====

protocol notes: Toxicity / maximum tolerated dosage in mice
Type: in vivo
measurement setup: mouse, in vivo, ip, single QD day 1 ip, L1210-inoculated BDF1 mice; read-out: Max. tolerated dosage
measured quantity: MTD (mg/kg)
Answers are plain numbers, in mg/kg.

See these solved cases before continuing.
molecule	MTD (mg/kg)
Nc1nc(S(N)(=O)=O)c2ncn([C@@H]3O[C@H](CO)[C@@H](O)[C@H]3O)c2n1 [Compound 20]	62
NSc1ncnc2c1ncn2[C@H]1C[C@H](O)[C@@H](CO)O1 [Compound 14]	288
NSc1nc(N)nc2c1ncn2[C@H]1C[C@H](O)[C@@H](CO)O1 [Compound 22]	173
NS(=O)(=O)c1ncnc2c1ncn2[C@@H]1O[C@H](CO)[C@@H](O)[C@H]1O [Compound 8]	173
NS(=O)(=O)c1ncnc2c1ncn2[C@@H]1O[C@H](CO)[C@@H](O)[C@@H]1O [Compound 12]	173
Nc1nc([S+](N)[O-])c2ncn([C@H]3C[C@H](O)[C@@H](CO)O3)c2n1 (some centres unmarked) [Compound 23]	173

Answer for every listed entry: what is its MTD? The entries follow.
1. NS(=O)(=O)c1ncnc2c1ncn2[C@H]1C[C@H](O)[C@@H](CO)O1 [Compound 16]
2. NSc1ncnc2c1ncn2[C@@H]1O[C@H](CO)[C@@H](O)[C@H]1O [Compound 6]

[173, 480]

====

protocol notes: Toxicity / maximum tolerated dosage in mice
Format: in vivo
measurement setup: mouse, in vivo; 104 mg/kg, bid days 1,4,7; L1210-inoculated mice; read-out: toxic deaths per number of animals in test group (converted)
measured quantity: mortality

Any idea what mortality was measured for Nc1nc([S+](N)[O-])c2ncn([C@@H]3O[C@H](CO)[C@@H](O)[C@H]3O)c2n1 (mixture of isomers) [Compound 19] ?
20%
